Target: Cytochrome P450 1A2 (Homo sapiens); also: in other assays of this panel Not Active means under 50% inhibition at 10 µM
Sequence (P05177 whole entry): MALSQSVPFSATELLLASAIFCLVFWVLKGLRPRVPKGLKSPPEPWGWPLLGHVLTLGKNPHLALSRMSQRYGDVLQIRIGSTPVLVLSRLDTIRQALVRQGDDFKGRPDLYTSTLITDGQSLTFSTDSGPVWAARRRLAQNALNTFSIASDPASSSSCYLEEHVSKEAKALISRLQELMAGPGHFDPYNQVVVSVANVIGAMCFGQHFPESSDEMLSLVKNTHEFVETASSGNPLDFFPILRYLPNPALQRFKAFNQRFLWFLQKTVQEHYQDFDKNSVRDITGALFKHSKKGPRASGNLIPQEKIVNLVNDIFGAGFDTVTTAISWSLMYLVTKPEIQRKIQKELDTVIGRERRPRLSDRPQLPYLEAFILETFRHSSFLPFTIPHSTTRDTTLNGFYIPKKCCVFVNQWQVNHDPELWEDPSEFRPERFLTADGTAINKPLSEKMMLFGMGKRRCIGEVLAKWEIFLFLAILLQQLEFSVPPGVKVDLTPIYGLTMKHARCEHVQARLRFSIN
Settings: bti-tn-5b1-4
Metric: IC50

Example cases with answers are listed next.
Compound | Target under test | IC50
CN1C(=O)CN=C(c2ccccc2)c2cc([N+](=O)[O-])ccc21 [NIMETAZEPAM] | Cytochrome P450 1A2 (Homo sapiens) | Not Active
CCN(CC)CCNC(=O)c1ccc(N)cc1 [PROCAINAMIDE] | Cytochrome P450 1A2 (Homo sapiens) | Not Active
Cc1c(O)cccc1C(=O)N[C@@H](CSc1ccccc1)[C@H](O)CN1C[C@H]2CCCC[C@H]2C[C@H]1C(=O)NC(C)(C)C | Cytochrome P450 1A2 (Homo sapiens) | Not Active
COc1ccnc(C[S+]([O-])c2nc3ccc(OC(F)F)cc3[nH]2)c1OC (stereo not drawn) [PANTOPRAZOLE] | Cytochrome P450 1A2 (Homo sapiens) | Not Active
C[N+](C)(C)C[C@H](O)CC(=O)[O-] [LEVOCARNITINE] | Cytochrome P450 1A2 (Homo sapiens) | Not Active
CC(C)C[C@H]1C(=O)N2CCC[C@H]2[C@]2(O)O[C@](NC(=O)[C@@H]3C=C4c5cccc6[nH]cc(c56)C[C@H]4N(C)C3)(C(C)C)C(=O)N12 [ERGOCRYPTINE] | Cytochrome P450 1A2 (Homo sapiens) | Not Active

Lab note: CC1CCC(NC(=O)N(CCCl)N=O)CC1 (stereo not drawn) [SEMUSTINE] gave IC50 of Not Active

Lab note: Nc1cc(-c2ccncc2)c[nH]c1=O [INAMRINONE] gave IC50 of Not Active

---

test: DRUGMATRIX: Calcium Channel Type L, Benzothiazepine radioligand binding (ligand: [3H] Diltiazem); type: cell membranes, Rattus norvegicus, Wistar, Brain, Membrane; settings: Not Active = under 50% inhibition at 10 µM

Compound | Ki
O=C(c1ccccc1F)N1CCC(Cc2ccccc2)CC1 | Not Active
CCn1cc(C(=O)O)c(=O)c2cc(F)c(N3CCNC(C)C3)c(F)c21 (stereo not drawn) | Not Active
CN1CCCC(CN2c3ccccc3Sc3ccccc32)C1 (stereo not drawn) | Not Active

---

experiment: DRUGMATRIX: Glutamate, AMPA radioligand binding (ligand: [3H] AMPA); type: cell membranes, Rattus norvegicus, Wistar, Cerebral cortex, Membrane; settings: Not Active = under 50% inhibition at 10 µM
Metric: IC50

Example cases with answers are listed next.
Molecule | IC50
CCCNC(=O)NS(=O)(=O)c1ccc(Cl)cc1 [CHLORPROPAMIDE] | Not Active
O=C(O)CCNC(=O)c1ccc(/N=N/c2ccc(O)c(C(=O)O)c2)cc1 [BALSALAZIDE] | Not Active
CC(C)(C)NCC(O)COc1cccc2c1CC(O)C(O)C2 (stereo not given) [NADOLOL] | Not Active
NC(=O)N1c2ccccc2CC(=O)c2ccccc21 [OXCARBAZEPINE] | Not Active
CC(=N)S [THIOACETAMIDE] | Not Active
CC1CCC(NC(=O)N(CCCl)N=O)CC1 (stereo not given) [SEMUSTINE] | Not Active
COC(=O)Nc1nc2cc(C(=O)c3ccc(F)cc3)ccc2[nH]1 [FLUBENDAZOLE] | Not Active
C[C@]12CC[C@@H]3c4ccc(O)cc4CC[C@H]3[C@@H]1C[C@@H](O)[C@@H]2O [ESTRIOL] | Not Active
CN1CCCC(CN2c3ccccc3Sc3ccccc32)C1 (stereo not given) [MEPAZINE] | Not Active
CC(C)(C(=O)O)c1ccc(C(O)CCCN2CCC(C(O)(c3ccccc3)c3ccccc3)CC2)cc1 (stereo not given) [FEXOFENADINE] | Not Active

Turning now to a further molecule:
Lab note: CN(C)CCC=C1c2ccccc2CCc2ccccc21 [AMITRIPTYLINE] gave IC50 of Not Active
